system: ATS95; assay: qHTS profiling for inhibitors of Plasmodium falciparum proliferation (AID 504749); note: nearly all actives have a fitted effect of over 60% in size; conditions: P. falciparum in erythrocytes, SYBR Green DNA, 72 h; series mostly up to 28.7 µM
Inconclusive results are not listed. The source made the active and inactive calls. Calls come from the whole dose curve; as a rule, active = well fitted inhibition curve with a large enough effect; inconclusive = small, poorly fitted or top-dose-only effect; inactive = flat fitted curve, though single readings scatter.
Write down the outcome that applies. Available outcomes: True for active, False for inactive

A selection of reference data follows.
> print(dat)
                                   compound  class.label
1  CC(=O)OCC(=O)[C@@H]1CC[C@H]2[C@H]3CC[C@H]4C[C@@H](O)CC[C@]4(C)[C@@H]3C(=O)C[C@@]12C        False
2  C[N+]1([O-])[C@@H]2CC[C@H]1CC(OC(=O)[C@@H](CO)c1ccccc1)C2 (some centres undefined)        False
3  O=c1ccc2cc(O[C@H]3O[C@@H](CO)[C@@H](O)[C@@H](O)[C@@H]3O)c(O)cc2o1        False

Moving on to another compound below.
Just curious, what result did C=CC1CN2CCC1CC2C(OC(=O)OCC)c1ccnc2ccc(OC)cc12 (centres undefined) get here?
True
